Tested on: Mycobacterium tuberculosis
assay.name: Antimycobacterial activity against Mycobacterium tuberculosis H37Rv
Type: functional, organism-based
measured.endpoint: IC50 (µg/mL)
Give the quantity in µg/mL, number only.

Item `N=c1c2ncnc(Nc3ccc(F)cc3)c2ncn1NC(=O)c1ccncc1` has what recorded IC50?
0.91

Item `CC(=O)Nn1cnc2c(Nc3ccc(C#N)cc3)ncnc2c1=N` has what recorded IC50?
42.1

Item `N#Cc1ccc(Nc2ncnc3c(=N)n(NC(=O)c4ccncc4)cnc23)cc1` has what recorded IC50?
17.2

Item `COc1ccc(Nc2ncnc3c(=N)n(NC(=O)c4ccco4)cnc23)cc1` has what recorded IC50?
3.56

Item `N=c1c2ncnc(Nc3ccccc3)c2ncn1NC(=O)c1ccco1` has what recorded IC50?
3.16

Item `N=c1c2ncnc(Nc3ccc(F)cc3)c2ncn1NC(=O)c1ccco1` has what recorded IC50?
2.17

Item `CC(=O)Nn1cnc2c(Nc3ccccc3)ncnc2c1=N` has what recorded IC50?
44.9

Item `N=c1c2ncnc(Nc3ccc(F)cc3)c2ncn1NC(=O)c1ccccc1` has what recorded IC50?
2.92

Item `N=c1c2ncnc(Nc3ccccc3)c2ncn1NC(=O)c1ccccc1` has what recorded IC50?
3.65

Item `N#Cc1ccc(Nc2ncnc3c(=N)n(NC(=O)c4ccccc4)cnc23)cc1` has what recorded IC50?
2.47

Item `COc1ccc(Nc2ncnc3c(=N)n(NC(=O)c4ccncc4)cnc23)cc1` has what recorded IC50?
1.59
